- TGT: UniProt:Q99500
- METHOD SUMMARY: Agonist activity at human S1P3 receptor expressed in CHO cells assessed as induction of intracellular calcium level
pEC50: −log10 of the molar value.
PROPERTY LABEL: pEC50

1) CC1=C(CN2CC(C(=O)O)C2)CCc2cc(OC[C@H](C)Cc3ccc(F)cc3)ccc21.Cl = 4.96

I: CC1=C(CN2CC(C(=O)O)C2)CCc2cc(OCCCc3cccc(F)c3)ccc21.Cl
II: CC1=C(CN2CC(C(=O)O)C2)CCc2cc(OC[C@@H](C)Cc3ccc(F)cc3)ccc21.Cl
III: CC1=C(CN2CC(C(=O)O)C2)CCc2cc(OCC(C)Cc3ccccc3)ccc21.Cl (racemic)
Arrange items by their pEC50 values in increasing order. Thanks in advance for listing the labels in the requested order.
III, II, I

I: CC1=C(CN2CC(C(=O)O)C2)CCc2cc(OC(C)CCc3ccccc3)ccc21 (centres undefined)
II: CC1=C(CN2CC(C(=O)O)C2)CCc2cc(OCCCc3ccc(F)cc3)ccc21.Cl
Between I and II , which one shows the smaller pEC50 number? In your reply, give the label of the chosen option.
I

* * *

- METHOD SUMMARY: Half life in rat at 1 mg/kg, iv
- Format: ADME, organism-based
- Design: dose 1 mg/kg, route intravenous
- PROTOCOL CONDITIONS: in vivo
PROPERTY LABEL: half-life (h)

1. CC1=C(CN2CC(C(=O)O)C2)CCc2cc(OC[C@@H](C)Cc3ccc(Cl)cc3)ccc21.Cl = 27
2. CC1=C(CN2CC(C(=O)O)C2)CCc2cc(OCCCc3ccc(F)cc3)ccc21.Cl = 21
3. CC1=C(CN2CC(C(=O)O)C2)CCc2cc(OC[C@@H](C)Cc3ccc(F)cc3)ccc21.Cl = 19

* * *

- TGT: Sphingosine 1-phosphate receptor 1 (Homo sapiens)
- Sequence (P21453 whole entry): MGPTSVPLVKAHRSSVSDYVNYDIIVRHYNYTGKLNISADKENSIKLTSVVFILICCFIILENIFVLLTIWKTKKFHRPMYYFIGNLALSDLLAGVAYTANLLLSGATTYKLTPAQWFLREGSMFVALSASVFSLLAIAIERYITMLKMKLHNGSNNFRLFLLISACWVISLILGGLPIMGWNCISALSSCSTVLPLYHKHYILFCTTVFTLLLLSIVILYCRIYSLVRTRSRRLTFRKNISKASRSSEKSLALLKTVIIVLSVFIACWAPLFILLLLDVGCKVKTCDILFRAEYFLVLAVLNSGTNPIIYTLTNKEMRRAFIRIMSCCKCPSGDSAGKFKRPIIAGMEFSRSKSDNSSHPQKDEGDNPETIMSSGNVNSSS
- METHOD SUMMARY: Agonist activity at human S1P1 receptor expressed in CHO cells assessed as induction of intracellular calcium level
pEC50: −log10 of the molar value.
PROPERTY LABEL: pEC50

Known results for molecules:
1) CC1=C(CN2CC(C(=O)O)C2)CCc2cc(OC[C@@H](C)Cc3ccc(F)cc3)ccc21.Cl = 9.43
2) CC[C@H](COc1ccc2c(c1)CCC(CN1CC(C(=O)O)C1)=C2C)Cc1ccc(F)cc1.Cl = 8.96

I: CC1=C(CN2CC(C(=O)O)C2)CCc2cc(OCCCc3ccccc3F)ccc21.Cl
II: CC1=C(CN2CC(C(=O)O)C2)CCc2cc(OCCC(C)c3ccccc3)ccc21.Cl (racemic)
Lab note: check whether I or II shows the higher recorded pEC50. In your reply, give the label of the chosen option.
II
(II: 9.22, I: 8.57)

* * *

- METHOD SUMMARY: Total clearance in rat at 1 mg/kg, iv
- Format: ADME, organism-based
- Set-up: dose 1 mg/kg, route intravenous
- PROTOCOL CONDITIONS: in vivo
PROPERTY LABEL: clearance (L/h/kg)

1. CC1=C(CN2CC(C(=O)O)C2)CCc2cc(OC[C@@H](C)Cc3ccc(F)cc3)ccc21.Cl = 0.24

a: CC1=C(CN2CC(C(=O)O)C2)CCc2cc(OCCCc3ccc(F)cc3)ccc21.Cl
b: CC1=C(CN2CC(C(=O)O)C2)CCc2cc(OC[C@@H](C)Cc3ccc(Cl)cc3)ccc21.Cl
Lab note: check whether a or b shows the higher recorded clearance. In your reply, give the label of the chosen option.
a
(a: 0.192 L/h/kg, b: 0.12 L/h/kg)

* * *

- METHOD SUMMARY: Cmax in rat at 1 mg/kg, po
- Type: ADME, organism-based
- Design: dose 1 mg/kg, route oral
- PROTOCOL CONDITIONS: in vivo
PROPERTY LABEL: Cmax (ng/mL)

1. CC1=C(CN2CC(C(=O)O)C2)CCc2cc(OC[C@@H](C)Cc3ccc(Cl)cc3)ccc21.Cl = 184

1: CC1=C(CN2CC(C(=O)O)C2)CCc2cc(OCCCc3ccc(F)cc3)ccc21.Cl
2: CC1=C(CN2CC(C(=O)O)C2)CCc2cc(OC[C@@H](C)Cc3ccc(F)cc3)ccc21.Cl
Lab note: check whether 1 or 2 shows the higher recorded Cmax. In your reply, give the label of the chosen option.
1

* * *

- TGT: Sphingosine 1-phosphate receptor 1 (Homo sapiens)
- METHOD SUMMARY: Agonist activity at human S1P1 receptor expressed in CHO cells assessed as induction of intracellular calcium level
PROPERTY LABEL: EC50 (nM)

1. CC1=C(CN2CC(C(=O)O)C2)CCc2cc(OC[C@@H](C)Cc3ccc(Cl)cc3)ccc21.Cl = 0.55
2. CC1=C(CN2CC(C(=O)O)C2)CCc2cc(OC[C@H](Cc3ccc(F)cc3)C(C)C)ccc21.Cl = 4.5
3. CC1=C(CN2CC(C(=O)O)C2)CCc2cc(OCCCc3cccc(F)c3)ccc21.Cl = 4
4. CC1=C(CN2CC(C(=O)O)C2)CCc2cc(OCCCc3ccccc3)ccc21.Cl = 3

I: CC1=C(CN2CC(C(=O)O)C2)CCc2cc(OCCCc3ccc(F)cc3)ccc21.Cl
II: CC1=C(CN2CC(C(=O)O)C2)CCc2cc(OC(C)CCc3ccccc3)ccc21 (stereo not drawn)
Lab note: check whether I or II shows the higher recorded EC50. In your reply, give the label of the chosen option.
II

* * *

- METHOD SUMMARY: Volume of distribution at steady state in rat at 1 mg/kg, iv
- Type: ADME, organism-based
- Design: dose 1 mg/kg, route intravenous
- PROTOCOL CONDITIONS: in vivo, read-out: Vdss
PROPERTY LABEL: Vd (L/kg)

1) CC1=C(CN2CC(C(=O)O)C2)CCc2cc(OCCCc3ccc(F)cc3)ccc21.Cl = 5.3

A: CC1=C(CN2CC(C(=O)O)C2)CCc2cc(OC[C@@H](C)Cc3ccc(F)cc3)ccc21.Cl
B: CC1=C(CN2CC(C(=O)O)C2)CCc2cc(OC[C@@H](C)Cc3ccc(Cl)cc3)ccc21.Cl
Between A and B , which one shows the smaller Vd number? In your reply, give the label of the chosen option.
B

* * *

- TGT: Sphingosine 1-phosphate receptor 3 (Homo sapiens)
- Sequence (Q99500 whole entry): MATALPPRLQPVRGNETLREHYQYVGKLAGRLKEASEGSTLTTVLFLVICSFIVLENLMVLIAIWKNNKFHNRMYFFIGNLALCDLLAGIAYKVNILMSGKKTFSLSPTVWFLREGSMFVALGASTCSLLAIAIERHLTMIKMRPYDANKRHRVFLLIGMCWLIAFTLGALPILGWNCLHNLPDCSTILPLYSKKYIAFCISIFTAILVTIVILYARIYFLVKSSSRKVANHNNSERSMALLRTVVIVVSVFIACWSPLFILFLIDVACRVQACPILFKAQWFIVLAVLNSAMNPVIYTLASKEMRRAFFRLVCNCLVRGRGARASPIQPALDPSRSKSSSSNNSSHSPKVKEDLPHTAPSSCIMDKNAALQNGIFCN
- METHOD SUMMARY: Agonist activity at human S1P3 receptor expressed in CHO cells assessed as induction of intracellular calcium level
PROPERTY LABEL: EC50 (µM)

Known results for compounds:
1. CC1=C(CN2CC(C(=O)O)C2)CCc2cc(OCCCc3ccccc3)ccc21.Cl = 5
2. CC[C@H](COc1ccc2c(c1)CCC(CN1CC(C(=O)O)C1)=C2C)Cc1ccc(F)cc1.Cl = 29.3

a: CC1=C(CN2CC(C(=O)O)C2)CCc2cc(OC[C@@H](C)Cc3ccc(Cl)cc3)ccc21.Cl
b: CC1=C(CN2CC(C(=O)O)C2)CCc2cc(OCCC(C)c3ccccc3)ccc21.Cl (racemic)
Lab note: check whether a or b shows the higher recorded EC50. In your reply, give the label of the chosen option.
b
(b: 22 µM, a: 8.2 µM)

* * *

- TGT: Sphingosine 1-phosphate receptor 3 (Homo sapiens)
- METHOD SUMMARY: Agonist activity at human S1P3 receptor expressed in CHO cells assessed as induction of intracellular calcium level
- Format: functional, cell-based
pEC50: −log10 of the molar value.
PROPERTY LABEL: pEC50

Known results for compounds:
1) CC1=C(CN2CC(C(=O)O)C2)CCc2cc(OCCCc3ccccc3F)ccc21.Cl = 5.54
2) CC1=C(CN2CC(C(=O)O)C2)CCc2cc(OCC(C)(C)Cc3ccccc3)ccc21 = < 4.52

// next entry
Which pEC50 is reported for this compound? CC1=C(CN2CC(C(=O)O)C2)CCc2cc(OC[C@H](Cc3ccc(F)cc3)C(C)C)ccc21.Cl
< 4.52
